Answer each item with its documented protein stability index.
B1: C1orf137 (parent)
chain: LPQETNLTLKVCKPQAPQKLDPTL

Variants of: B1
test.name: protein stability index of a GFP-peptide fusion (GPS, HEK-293T) (PSI 1-6); higher = more stable;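 further: lentivirally expressed fusions sorted by FACS into six bins by GFP to DsRed ratio, PSI derived from sequencing read proportions per bin multiplied by bin number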
condition.set: c terminus: a fixed tail appended
Give bare numbers.

| mutation.name | protein stability index |
| --- | --- |
| A16T | 4.07 |
| V11N | 4.21 |
| L1M | 4.04 |
| K10D | 4.56 |

# map each variant to its protein stability index
1. P14I
2. Q18I
3. Q18T
4. T5D
5. Q15H

result:
[2.76, 3.92, 3.82, 4.38, 3.65]

Reference for the values: the supplement of paper PMC10567573
